Attribution: patent US20180338980A1

Target: P2X4 (Homo sapiens, UniProt Q99571)
Assay: Assay B: human P2X4 receptor cell line, mitochondrial photina luminescence (agonist Bz-ATP at EC50)
Format: cell-based
Set-up: host or cells: HEK 293 (recombinant, constitutively expressing; with mitochondrial photina in Assay B)
Settings: HEK human P2X4 cell line, photina luminescence, agonist Bz-ATP at EC50, average
Procedure: The identification of agonists and antagonists of the P2X4 receptor from humans and […] also the quantification of the activity of the compounds of the invention was performed by use of recombinant cell lines. […] The test cell lines constitutively express the mouse or human P2X4 receptors. […] The strength of Fluo8 fluorescence signal or photina luminescence signal corresponds to the level of receptor activation. […] The resulting light signal is measured immediately in the luminometer.
Values of IC50 strictly less than 300 nM map to t, and values of at least 300 nM map to f.

NC(=O)c1cccc(Oc2ccc(NC(=O)Cc3ccccc3Cl)cc2S(N)(=O)=O)c1 [Example 017] : t

Now examine the next entry.
In the record for CN1CCN=C1c1cccc(Oc2ccc(NC(=O)Cc3ccccc3Cl)cc2S(N)(=O)=O)c1 [Example 041] , is IC50 less than 300 nM?
f

====

I'd be grateful if you could share measured Emax for these entries.
target: UniProtKB Q99571; assay: Assay B: human P2X4 receptor cell line, mitochondrial photina luminescence (agonist Bz-ATP at EC50); type: cell-based; set-up: host or cells: HEK 293 (recombinant, constitutively expressing; with mitochondrial photina in Assay B); details: HEK human P2X4 cell line, photina luminescence, agonist Bz-ATP at EC50, average; read-out: human P2X4 Assay B avg Efficacy
Answers are plain numbers, in %.

Past entries and their recorded results:
CN(C)C(=O)c1cccc(CC(=O)Nc2ccc(Oc3cccc(Cl)c3)c(S(N)(=O)=O)c2)c1 : 83
CS(=O)(=O)c1cccc(COc2ccc(NC(=O)Cc3ccccc3Cl)cc2S(N)(=O)=O)c1 : 83
Cc1nc(-c2cccc(Oc3ccc(NC(=O)Cc4ccccc4Cl)cc3S(N)(=O)=O)c2)cs1 : 72
Cc1ccc(CC(=O)Nc2ccc(Oc3cccc(Cl)c3)c(S(N)(=O)=O)c2)c(Cl)c1 : 63
NS(=O)(=O)c1cc(NC(=O)Cc2ccc(C(F)(F)F)cc2)ccc1Oc1ccc(Cl)cc1 : 69

Give one value of Emax per listed molecule.
1. NS(=O)(=O)c1cc(NC(=O)Cc2c(Cl)ccc(C3CC3)c2Cl)ccc1Oc1cccc(Cl)c1
2. NS(=O)(=O)c1cc(NC(=O)Cc2ccccc2F)ccc1Oc1ccc(Cl)cc1

1: 69; 2: 50

Give one value of Emax per listed molecule.
1. NS(=O)(=O)c1cc(NC(=O)Cc2ccccc2Cl)ccc1Oc1ccc(-n2ccnc2)cc1
2. NS(=O)(=O)c1cc(NC(=O)Cc2ccccc2Cl)ccc1Oc1cc(Cl)ccn1
3. NS(=O)(=O)c1cc(NC(=O)Cc2ccccc2)ccc1OC1CCCC1

1. 90
2. 65
3. 67

====

Target: mouse P2X4 receptors (Mus musculus)
Sequence (Q9JJX6 1-388): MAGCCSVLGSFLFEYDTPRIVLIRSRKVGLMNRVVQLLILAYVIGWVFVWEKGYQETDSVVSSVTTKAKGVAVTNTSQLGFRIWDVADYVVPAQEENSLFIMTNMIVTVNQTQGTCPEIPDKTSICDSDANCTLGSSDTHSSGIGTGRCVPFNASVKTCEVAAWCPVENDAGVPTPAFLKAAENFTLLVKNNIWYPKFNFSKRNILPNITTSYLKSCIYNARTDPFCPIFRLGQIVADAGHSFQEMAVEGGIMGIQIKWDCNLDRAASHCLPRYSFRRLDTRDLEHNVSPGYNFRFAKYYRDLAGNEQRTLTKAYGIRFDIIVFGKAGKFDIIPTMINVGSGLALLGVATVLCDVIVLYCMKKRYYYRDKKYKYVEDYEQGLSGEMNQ
Assay: Assay B: mouse P2X4 receptor cell line, Fluo8 fluorescence FLIPR (agonist Bz-ATP at EC50)
Conditions: HEK mouse P2X4 cell line, agonist Bz-ATP at EC50, average
pIC50: −log10 of the molar value.
quantity measured: pIC50

Past entries and their recorded results:
COC(=O)c1ccccc1Oc1ccc(NC(=O)Cc2ccccc2Cl)cc1S(N)(=O)=O : < 4.80
NS(=O)(=O)c1cc(NC(=O)Cc2ccccc2Cl)ccc1OC1CCOCC1 : ≤ 4.80

Look at this molecule and give its reported pIC50. `NS(=O)(=O)c1cc(NC(=O)Cc2ccc(C(F)(F)F)cc2)ccc1OCc1ccccn1`
< 4.30

====

Biological target: P2X4 (Homo sapiens, UniProt Q99571)
Sequence (Q99571 1-388): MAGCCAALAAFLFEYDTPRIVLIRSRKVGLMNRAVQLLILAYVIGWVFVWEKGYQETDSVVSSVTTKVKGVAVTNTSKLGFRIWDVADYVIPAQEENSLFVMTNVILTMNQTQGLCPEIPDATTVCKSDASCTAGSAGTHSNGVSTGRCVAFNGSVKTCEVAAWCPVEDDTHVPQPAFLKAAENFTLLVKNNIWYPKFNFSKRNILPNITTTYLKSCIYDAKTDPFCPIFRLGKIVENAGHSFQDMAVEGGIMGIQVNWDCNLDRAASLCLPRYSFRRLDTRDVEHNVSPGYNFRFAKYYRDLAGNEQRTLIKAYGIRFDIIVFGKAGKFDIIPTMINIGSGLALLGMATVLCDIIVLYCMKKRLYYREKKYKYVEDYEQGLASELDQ
Experiment: Assay A: human P2X4 receptor cell line, FLIPR calcium assay (Fluo-8, agonist Bz-ATP at EC80)
Type: cell-based
Set-up: host or cells: HEK 293 (recombinant, constitutively expressing; with mitochondrial photina in Assay B)
Settings: percentage of maximal inhibition; HEK human P2X4 cells, Fluo-8 FLIPR; read-out: human P2X4 Assay A avg Efficacy
quantity measured: Emax (%)
Answers are plain numbers, in %.

Past entries and their recorded results:
NS(=O)(=O)c1cc(NC(=O)Cc2ccccc2Cl)ccc1Oc1ccc(C2CCC(=O)N2)cc1 (stereo not shown) [Example 062] : 95
NS(=O)(=O)c1cc(NC(=O)Cc2ccccc2Cl)ccc1OCC1(F)CCOCC1 [Example 054] : 94
COc1ccc(CC(=O)Nc2ccc(Oc3ccc(Cl)cc3)c(S(N)(=O)=O)c2)cc1 [Example 229] : 63
COc1ccccc1CC(=O)Nc1ccc(Oc2cccc(Cl)c2)c(S(N)(=O)=O)c1 [Example 192] : 86
CC(Oc1ccc(NC(=O)Cc2ccccc2Cl)cc1S(N)(=O)=O)c1ccccc1 (single isomer, unassigned) [Example 148A] : 92
NS(=O)(=O)c1cc(NC(=O)Cc2cc(F)ccc2Cl)ccc1OCC1CCOCC1 [Example 163] : 68
NS(=O)(=O)c1cc(NC(=O)Cc2cccc(Cl)c2Cl)ccc1Oc1cccc(Cl)c1 [Example 103] : 78
NS(=O)(=O)c1cc(NC(=O)Cc2ccc(F)cc2Cl)ccc1OCC1CCOCC1 [Example 282] : 82
NS(=O)(=O)c1cc(NC(=O)Cc2c(F)ccc(F)c2Cl)ccc1Oc1cccc(Cl)c1 [Example 122] : 83
NS(=O)(=O)c1cc(NC(=O)Cc2ccccc2)ccc1Oc1ccc(Cl)cc1 [Example 077] : 54

Give one value of Emax per listed compound.
1. Cc1c(Br)ccc(Cl)c1CC(=O)Nc1ccc(Oc2cccc(Cl)c2)c(S(N)(=O)=O)c1 [Example 133]
2. COc1cccc(Cl)c1CC(=O)Nc1ccc(Oc2cccc(Cl)c2)c(S(N)(=O)=O)c1 [Example 101]
3. NS(=O)(=O)c1cc(NC(=O)Cc2ccccc2Cl)ccc1OCC1CCCC1 [Example 160]
4. N#Cc1ccc(COc2ccc(NC(=O)Cc3ccccc3Cl)cc2S(N)(=O)=O)cc1 [Example 138]
5. COC(=O)c1ccccc1Oc1ccc(NC(=O)Cc2ccccc2Cl)cc1S(N)(=O)=O [Example 272]

[75, 97, 71, 67, 73]

====

target: P2X4 (Homo sapiens); experiment: Assay B: human P2X4 receptor cell line, mitochondrial photina luminescence (agonist Bz-ATP at EC50); format: cell-based; design: host or cells: HEK 293 (recombinant, constitutively expressing; with mitochondrial photina in Assay B); conditions: HEK human P2X4 cell line, photina luminescence, agonist Bz-ATP at EC50, average; read-out: human P2X4 Assay B avg Efficacy
I'd be grateful if you could share measured Emax for these entries.
Answers are plain numbers, in %.

Past entries and their recorded results:
COc1ccc(C#N)cc1Oc1ccc(NC(=O)Cc2ccccc2Cl)cc1S(N)(=O)=O [Example 034] : 57
NS(=O)(=O)c1cc(NC(=O)Cc2ccc(C(F)(F)F)cc2)ccc1Oc1cccc(Cl)c1 [Example 116] : 72
Cc1ccc(CC(=O)Nc2ccc(Oc3cccc(Cl)c3)c(S(N)(=O)=O)c2)cc1 [Example 179] : 65
NS(=O)(=O)c1cc(NC(=O)Cc2ccccc2Cl)ccc1Oc1cccc(N2CCCCC2)c1 [Example 049] : 92
NS(=O)(=O)c1cc(NC(=O)Cc2ccccc2Cl)ccc1OCC1CCCOC1 (stereo not drawn) [Example 165] : 43
Cc1cc(C)cc(Oc2ccc(NC(=O)Cc3ccccc3)cc2S(N)(=O)=O)c1 [Example 246] : 94

Give one value of Emax per listed compound.
1. COCCN(C)C(=O)c1cccc(CC(=O)Nc2ccc(Oc3cccc(Cl)c3)c(S(N)(=O)=O)c2)c1 [Example 208]
2. NS(=O)(=O)c1cc(NC(=O)Cc2ccccc2)cnc1Oc1cccc(C(F)(F)F)c1 [Example 169]
3. NS(=O)(=O)c1cc(NC(=O)Cc2c(Cl)ccc(C(F)(F)F)c2Cl)ccc1Oc1cccc(Cl)c1 [Example 130]
4. N#Cc1ccc(COc2ccc(NC(=O)Cc3ccccc3Cl)cc2S(N)(=O)=O)cc1 [Example 138]

[67, 75, 70, 56]
